# Tested on: MT4
# experiment.summary: Activity against HIV-2 in MT-4 cells (in vitro)
# Assay type: functional, cell-based
# test.settings: Homo sapiens
Overview of reported EC50 across a group of compounds:

compound: CCc1ccc(OP(=O)(NC(C)C(=O)OC)OCC2C=CC(n3cc(C)c(=O)[nH]c3=O)O2)cc1 (centres undefined)
EC50, nM: 63
//
compound: COC(=O)C(CC(C)C)NP(=O)(OCC1C=CC(n2cc(C)c(=O)[nH]c2=O)O1)Oc1ccccc1 (centres undefined)
EC50, nM: 470
//
compound: COC(=O)C(Cc1ccccc1)NP(=O)(OCC1C=CC(n2cc(C)c(=O)[nH]c2=O)O1)Oc1ccccc1 (centres undefined)
EC50, nM: 380
//
compound: COC(=O)C(C)NP(=O)(OC[C@@H]1C=C[C@H](n2cc(C)c(=O)[nH]c2=O)O1)Oc1ccccc1 (some centres undefined)
EC50, nM: 67
//
compound: COC(=O)C(C)NP(=O)(OC[C@@H]1C=C[C@H](n2cc(C)c(=O)[nH]c2=O)O1)Oc1cccc(C(F)(F)F)c1 (some centres undefined)
EC50, nM: 110
//
compound: COC(=O)C(NP(=O)(OCC1C=CC(n2cc(C)c(=O)[nH]c2=O)O1)Oc1ccccc1)C(C)C (centres undefined)
EC50, nM: 11200
//
compound: COC(=O)C(CCSC)NP(=O)(OCC1C=CC(n2cc(C)c(=O)[nH]c2=O)O1)Oc1ccccc1 (centres undefined)
EC50, nM: 380
//
compound: Cc1cn([C@H]2C=C[C@@H](CO)O2)c(=O)[nH]c1=O
EC50, nM: 770
//
compound: COC(=O)C(C)NP(=O)(OC)OCC1C=CC(n2cc(C)c(=O)[nH]c2=O)O1 (centres undefined)
EC50, nM: 50900

----------
# Test system: CEM-TK(-) (Homo sapiens)
# experiment.summary: Activity against HIV-1 in CEM/TK cells (in vitro)
pEC50: −log10 of the molar value.

compound: COC(=O)C(CC(C)C)NP(=O)(OCC1C=CC(n2cc(C)c(=O)[nH]c2=O)O1)Oc1ccccc1 (stereo unspecified)
censoring.operator: =
pEC50: 6.40

compound: COC(=O)CNP(=O)(OCC1C=CC(n2cc(C)c(=O)[nH]c2=O)O1)Oc1ccccc1 (stereo unspecified)
censoring.operator: =
pEC50: 5.15

compound: COC(=O)C(C)NP(=O)(OC[C@@H]1C=C[C@H](n2cc(C)c(=O)[nH]c2=O)O1)Oc1ccccc1 (stereo partly specified)
censoring.operator: =
pEC50: 7.12

compound: CCc1ccc(OP(=O)(NC(C)C(=O)OC)OCC2C=CC(n3cc(C)c(=O)[nH]c3=O)O2)cc1 (stereo unspecified)
censoring.operator: =
pEC50: 7.22

compound: COC(=O)C(C)NP(=O)(OC)OCC1C=CC(n2cc(C)c(=O)[nH]c2=O)O1 (stereo unspecified)
censoring.operator: <
pEC50: 3.60

compound: Cc1cn([C@H]2C[C@H](N=[N+]=[N-])[C@@H](CO)O2)c(=O)[nH]c1=O
censoring.operator: <
pEC50: 4.00

----------
Overview of reported EC50 across a group of molecules:
# Tested on: MT4
# experiment.summary: Activity against HIV-2 in MT-4 cells (in vitro)
# Type: functional, cell-based
# test.settings: Homo sapiens

molecule: COC(=O)CNP(=O)(OCC1C=CC(n2cc(C)c(=O)[nH]c2=O)O1)Oc1ccccc1 (centres undefined)
uom: µM
EC50: 6.71

molecule: COC(=O)C(C)NP(=O)(OCC1C=CC(n2cc(C)c(=O)[nH]c2=O)O1)Oc1cc(Cl)cc(Cl)c1 (centres undefined)
uom: µM
EC50: 0.12

molecule: COC(=O)C(C)NP(=O)(OCC1C=CC(n2cc(C)c(=O)[nH]c2=O)O1)Oc1c(F)c(F)c(F)c(F)c1F (centres undefined)
uom: µM
EC50: 4.07

molecule: CCOP(=O)(NC(C)C(=O)OC)OCC1C=CC(n2cc(C)c(=O)[nH]c2=O)O1 (centres undefined)
uom: µM
EC50: 62.5

----------
# System: CEM-TK(-) (Homo sapiens)
# experiment.summary: Activity against HIV-1 in CEM/TK cells (in vitro)
pEC50: −log10 of the molar value.

compound: COC(=O)C(C)NP(=O)(OCC1C=CC(n2cc(C)c(=O)[nH]c2=O)O1)Oc1c(F)c(F)c(F)c(F)c1F (centres undefined)
pEC50: 5.07
--
compound: COC(=O)C(NP(=O)(OCC1C=CC(n2cc(C)c(=O)[nH]c2=O)O1)Oc1ccccc1)C(C)C (centres undefined)
pEC50: 5.40
--
compound: COC(=O)C(Cc1ccccc1)NP(=O)(OCC1C=CC(n2cc(C)c(=O)[nH]c2=O)O1)Oc1ccccc1 (centres undefined)
pEC50: 6.48
--
compound: COC(=O)C(C)NP(=O)(OC[C@@H]1C=C[C@H](n2cc(C)c(=O)[nH]c2=O)O1)Oc1cccc(C(F)(F)F)c1 (some centres undefined)
pEC50: 6.96

----------
# System: CEM-TK(-) (Homo sapiens)
# experiment.summary: Activity against HIV-1 in CEM/TK cells (in vitro)

compound: COC(=O)C(C)NP(=O)(OCC1C=CC(n2cc(C)c(=O)[nH]c2=O)O1)Oc1ccc(Br)cc1Br (stereo not given)
uom: nM
EC50: 25
//
compound: CCOP(=O)(NC(C)C(=O)OC)OCC1C=CC(n2cc(C)c(=O)[nH]c2=O)O1 (stereo not given)
uom: nM
EC50: 48000
//
compound: COC(=O)C(C)NP(=O)(OCC1C=CC(n2cc(C)c(=O)[nH]c2=O)O1)Oc1cc(Cl)cc(Cl)c1 (stereo not given)
uom: nM
EC50: 110
//
compound: Cc1cn([C@H]2C=C[C@@H](CO)O2)c(=O)[nH]c1=O
uom: nM
EC50: 33300
//
compound: COC(=O)C(CCSC)NP(=O)(OCC1C=CC(n2cc(C)c(=O)[nH]c2=O)O1)Oc1ccccc1 (stereo not given)
uom: nM
EC50: 330

----------
# Test system: CCRF-CEM
# experiment.summary: Activity against HIV-2 in CEM cells (in vitro)
# Assay type: functional, cell-based
# test.settings: Homo sapiens
Class (by EC50) -- interval 1 = under 0.2 µM, interval 2 = from 0.2 µM up to 4 µM, interval 3 = 4 µM and over

compound: CCc1ccc(OP(=O)(NC(C)C(=O)OC)OCC2C=CC(n3cc(C)c(=O)[nH]c3=O)O2)cc1 (stereo not drawn)
classification: interval 1
//
compound: COC(=O)C(NP(=O)(OCC1C=CC(n2cc(C)c(=O)[nH]c2=O)O1)Oc1ccccc1)C(C)C (stereo not drawn)
classification: interval 3
//
compound: Cc1cn([C@H]2C=C[C@@H](CO)O2)c(=O)[nH]c1=O
classification: interval 2
//
compound: CCOP(=O)(NC(C)C(=O)OC)OCC1C=CC(n2cc(C)c(=O)[nH]c2=O)O1 (stereo not drawn)
classification: interval 3
//
compound: COC(=O)C(Cc1ccccc1)NP(=O)(OCC1C=CC(n2cc(C)c(=O)[nH]c2=O)O1)Oc1ccccc1 (stereo not drawn)
classification: interval 2
//
compound: COC(=O)C(C)NP(=O)(OC[C@@H]1C=C[C@H](n2cc(C)c(=O)[nH]c2=O)O1)Oc1cccc(C(F)(F)F)c1 (stereo partly drawn)
classification: interval 1
//
compound: COC(=O)C(CCSC)NP(=O)(OCC1C=CC(n2cc(C)c(=O)[nH]c2=O)O1)Oc1ccccc1 (stereo not drawn)
classification: interval 2
//
compound: COC(=O)C(C)NP(=O)(OCC1C=CC(n2cc(C)c(=O)[nH]c2=O)O1)Oc1c(F)c(F)c(F)c(F)c1F (stereo not drawn)
classification: interval 2
//
compound: COC(=O)C(C)NP(=O)(OC)OCC1C=CC(n2cc(C)c(=O)[nH]c2=O)O1 (stereo not drawn)
classification: interval 3
//
compound: COC(=O)C(C)NP(=O)(OCC1C=CC(n2cc(C)c(=O)[nH]c2=O)O1)Oc1ccc(Br)cc1Br (stereo not drawn)
classification: interval 1
//
compound: COC(=O)CNP(=O)(OCC1C=CC(n2cc(C)c(=O)[nH]c2=O)O1)Oc1ccccc1 (stereo not drawn)
classification: interval 3
//
compound: COC(=O)C(C)NP(=O)(OCC1C=CC(n2cc(C)c(=O)[nH]c2=O)O1)Oc1cc(Cl)cc(Cl)c1 (stereo not drawn)
classification: interval 1

----------
# Tested on: CCRF-CEM
# experiment.summary: Cytotoxic concentration against CEM cells (in vitro)
# Format: functional
# test.settings: Homo sapiens

molecule: COC(=O)C(CCSC)NP(=O)(OCC1C=CC(n2cc(C)c(=O)[nH]c2=O)O1)Oc1ccccc1 (stereo unspecified)
uom: µM
censoring.operator: >
CC50: 250

molecule: COC(=O)CNP(=O)(OCC1C=CC(n2cc(C)c(=O)[nH]c2=O)O1)Oc1ccccc1 (stereo unspecified)
uom: µM
censoring.operator: >
CC50: 250

molecule: COC(=O)C(Cc1ccccc1)NP(=O)(OCC1C=CC(n2cc(C)c(=O)[nH]c2=O)O1)Oc1ccccc1 (stereo unspecified)
uom: µM
censoring.operator: =
CC50: 216

molecule: Cc1cn([C@H]2C[C@H](N=[N+]=[N-])[C@@H](CO)O2)c(=O)[nH]c1=O
uom: µM
censoring.operator: >
CC50: 500

molecule: COC(=O)C(C)NP(=O)(OC[C@@H]1C=C[C@H](n2cc(C)c(=O)[nH]c2=O)O1)Oc1cccc(C(F)(F)F)c1 (stereo partly specified)
uom: µM
censoring.operator: =
CC50: 29.8

molecule: COC(=O)C(C)NP(=O)(OCC1C=CC(n2cc(C)c(=O)[nH]c2=O)O1)Oc1cc(Cl)cc(Cl)c1 (stereo unspecified)
uom: µM
censoring.operator: =
CC50: 26.9
